- ASSAY OVERVIEW: Portal vein versus systemic pharmacokinetics in hepatic portal vein cannulated CD(SD) rats
- Assay type: in vivo
- STUDY CONDITIONS: male, rat, plasma (systemic blood), Peripheral bleed (retro-orbital sinus), 10 mg/kg oral, read-out: AUC (0→7 h)
READOUT: AUC(0-t) (µg·h/mL)
Record the value in µg·h/mL, omitting the unit from your answer.

Task: // AUC(0-t) lookup, key: `N#Cc1ccc(CCNC(=O)[C@@H]2CCN2c2cc(N3CCC(CCNC(=O)NCCC(=O)O)CC3)nc(C(F)(F)F)n2)cc1`
Output: 0.0762

---

- TARGET: mouse TGR5 receptor (Mus musculus)
- Construct: host or cells: HEK293-EBNA (293 c18, ATCC CRL10852)
- Sequence (Q80SS6 whole entry): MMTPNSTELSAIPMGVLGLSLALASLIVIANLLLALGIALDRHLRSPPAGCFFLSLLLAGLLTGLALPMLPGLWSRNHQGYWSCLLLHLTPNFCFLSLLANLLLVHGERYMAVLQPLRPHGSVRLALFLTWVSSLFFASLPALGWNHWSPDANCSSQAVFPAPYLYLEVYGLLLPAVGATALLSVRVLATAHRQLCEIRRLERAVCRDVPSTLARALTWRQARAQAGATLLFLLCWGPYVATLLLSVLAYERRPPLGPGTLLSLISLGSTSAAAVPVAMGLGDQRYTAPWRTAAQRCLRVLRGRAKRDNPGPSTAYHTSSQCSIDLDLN
- ASSAY OVERVIEW: Mouse TGR5 HTRF cAMP production assay (HEK293-EBNA cells, Cisbio cAMP HiRange kit)
- Format: cell-based
- STUDY CONDITIONS: HEK293-EBNA cells overexpressing mouse TGR5, HTRF cAMP assay
pEC50: −log10 of the molar value.
For each of the compounds below, state its pEC50.

Task: Which pEC50 value is on record for `N#Cc1ccc(CCNC(=O)[C@@H]2CCCN2c2cc(-c3ccc(CCNC(=O)NCCCS(=O)(=O)O)cc3)nc(C(F)(F)F)n2)cc1` ?
Output: > 7.00

Task: What does the data say about its pEC50? Entry: `N#Cc1ccc(CCNC(=O)[C@@H]2CCCN2c2cc(-c3ccc(CCC(=O)O)cc3)cc(C(F)(F)F)n2)cc1`
Output: > 7.00

Task: GET /values?readout=pEC50&item= `N[C@@H](CS(=O)(=O)O)C(=O)NCCC1CCN(c2cc(N3CC[C@H]3C(=O)NCCc3ccc(C(F)(F)F)cc3)nc(C(F)(F)F)n2)CC1`
Output: > 7.00

---

- TARGET: human TGR5 receptor (Homo sapiens)
- Sequence (Q8TDU6 1-330): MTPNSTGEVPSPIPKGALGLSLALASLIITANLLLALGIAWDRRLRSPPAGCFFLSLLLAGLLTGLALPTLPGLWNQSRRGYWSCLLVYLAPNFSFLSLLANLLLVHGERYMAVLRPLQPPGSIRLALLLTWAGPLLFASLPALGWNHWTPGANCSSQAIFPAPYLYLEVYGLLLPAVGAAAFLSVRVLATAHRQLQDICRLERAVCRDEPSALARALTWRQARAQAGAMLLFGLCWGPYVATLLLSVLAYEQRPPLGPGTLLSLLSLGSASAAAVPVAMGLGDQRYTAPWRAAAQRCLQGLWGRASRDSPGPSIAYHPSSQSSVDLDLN
- ASSAY OVERVIEW: Human TGR5 cAMP production assay (hTGR5-CHO cells, DiscoveRx cAMP XS+ kit)
- STUDY CONDITIONS: luminescent cAMP assay, read-out: Human TGR5 Lum. cAMP Activity (EC50)
pEC50: −log10 of the molar value.
READOUT: pEC50

Task: Query: pEC50; subject: CN(C(=O)NCCC(=O)O)c1ccc(-c2cc(N3CCC[C@H]3C(=O)NCCc3ccc(C#N)cc3)nc(C(F)(F)F)n2)cc1 [Compound 196]
Output: 4.52 to 6.00

Task: Which value of pEC50 has been reported for N#Cc1ccc(CCNC(=O)[C@@H]2CCCN2c2cc(N3CCC(CCNC(=O)NCCC(=O)NCCS(=O)(=O)O)CC3)nc(C(F)(F)F)n2)cc1 [Compound 113] in the records?
Output: > 7.00

Task: Any idea what its pEC50 is? The molecule is CC(=O)N(C)CC1CCN(c2cc(N3CCC[C@H]3C(=O)NCCc3ccc(C#N)cc3)nc(C(F)(F)F)n2)CC1 [Compound 54]
Output: 6.00 to 7.00

Task: Item COc1cc(C(F)(F)F)ccc1CCNC(=O)[C@@H]1CCCN1c1cc(N2CCC(CCCC(=O)NCCS(=O)(=O)O)CC2)nc(C(F)(F)F)n1 [Compound 57] has what recorded pEC50?
Output: > 7.00

Task: What value of pEC50 has been recorded for this entry: CC(=O)NCC1CCN(c2cc(N3CCC[C@H]3C(=O)NCCc3ccc(C#N)cc3)nc(C(F)(F)F)n2)CC1 [Compound 52]
Output: 6.00 to 7.00

Task: Could you tell me which pEC50 is on file for N#Cc1ccc(CCNC(=O)[C@@H]2CCN2c2cc(N3CCC(CCNC(=O)NCCS(=O)(=O)O)CC3)nc(C(F)(F)F)n2)cc1 [Compound 271] ?
Output: > 7.00

Task: Looking for the measured pEC50 of N#Cc1ccc(CCNC(=O)[C@@H]2CCCN2c2cc(-c3ccncc3)nc(C(F)(F)F)n2)cc1 [Compound 141] , can you help?
Output: 6.00 to 7.00

Task: Suppose we examine the molecule N#Cc1ccc(CCNC(=O)[C@@H]2CCN2c2cc(N3CCC(CCCC(=O)NCCO)CC3)nc(C(F)(F)F)n2)cc1 [Compound 361] ; what pEC50 value has been reported?
Output: > 7.00

Task: Looking for the measured pEC50 of O=C(O)CCCC1CCN(c2cc(N3CCC[C@H]3C(=O)NCCc3ccc(C(F)(F)F)cc3)nc(C(F)(F)F)n2)CC1 [Compound 9] , can you help?
Output: > 7.00

Task: What pEC50 value was documented for this molecule, N#Cc1ccc(CCNC(=O)[C@@H]2CCCN2c2cc(N3CCC(CCNC(=N)N)CC3)nc(C(F)(F)F)n2)cc1 [Compound 126] ?
Output: > 7.00

Task: Recorded pEC50 for N#Cc1ccc(CCNC(=O)[C@@H]2CCCN(c3cc(N4CCN(Cc5cccc6c5OCO6)CC4)nc(C(F)(F)F)n3)C2)cc1 [Compound 319] , please?
Output: 6.00 to 7.00

Task: Need pEC50 of CN(C)[C@@H]1C[C@@H](C(=O)NCCc2ccc(C(F)(F)F)cc2)N(c2cc(N3CCC(CCNC(=O)NCCC(=O)O)CC3)nc(C(F)(F)F)n2)C1 [Compound 352] , thanks.
Output: 4.52 to 6.00

Task: I am curious: what pEC50 value has been reported for N#Cc1ccc(CCNC(=O)[C@@H]2CCCN2c2cc(N3CCC(CCCC(=O)N[C@@H](CCC(=O)O)C(=O)O)CC3)nc(C(F)(F)F)n2)cc1 [Compound 76] ?
Output: > 7.00

Task: Would you kindly share the measured pEC50 for O=C(CCCC1CCN(c2cc(N3CCC[C@H]3C(=O)NCCc3ccc(C(F)(F)F)cc3)nc(C(F)(F)F)n2)CC1)NCCNc1ncnc2[nH]cnc12 [Compound 95] ?
Output: > 7.00

Task: Please give the measured pEC50 for this molecule: N#Cc1ccc(CCNC(=O)[C@@H]2CCN2c2cc(N3CCC(CCNc4c(NCCC(=O)O)c(=O)c4=O)CC3)nc(C(F)(F)F)n2)cc1 [Compound 301]
Output: > 7.00

Task: Quick one: pEC50 of O=C(O)CCCC1CCN(c2cc(N3C[C@H](O)C[C@H]3C(=O)NCCc3ccc(C(F)(F)F)cc3)nc(C(F)(F)F)n2)CC1 [Compound 212] ?
Output: 6.00 to 7.00

Task: Fill in: pEC50 of N#Cc1ccc(CCNC(=O)[C@@H]2CCN2c2cc(N3CCC(CCCC(=O)NC[C@@H](O)[C@H](O)[C@@H](O)[C@@H](O)CO)CC3)nc(C(F)(F)F)n2)cc1 [Compound 260] is ___
Output: > 7.00

Task: Consider the molecule CS(=O)(=O)c1ccc(-c2cc(N3CCC[C@H]3C(=O)NCCc3ccc(C#N)cc3)nc(C(F)(F)F)n2)cc1 [Compound 152] and give its measured pEC50.
Output: 6.00 to 7.00

Task: Data request, read-out pEC50, for O=C(CCCC1CCN(c2cc(N3CCC[C@H]3C(=O)NCCc3ccc(C(F)(F)F)cc3)nc(C(F)(F)F)n2)CC1)NCCNc1cc(N(CCO)CCO)ncn1 [Compound 111]
Output: > 7.00

Task: Record request: pEC50 value, item N#Cc1ccc(CCNC(=O)[C@@H]2CCCN2c2cc(N3CCC(CCCNC(=O)NCC(=O)O)CC3)nc(C(F)(F)F)n2)cc1 [Compound 121]
Output: 6.00 to 7.00

Task: pEC50 lookup needed for N#Cc1ccc(CCNC(=O)[C@@H]2CCCN2c2cc(N3CCC(CCNC(=O)NCCC(=O)O)CC3)nc(C(F)(F)F)n2)cc1 [Compound 81] , thanks.
Output: > 7.00

Task: // lookup pEC50 for N#Cc1ccc(CCNC(=O)[C@@H]2CCCN2c2cc(-c3ccc(CN4CCNCC4)cc3)nc(C(F)(F)F)n2)cc1 [Compound 187]
Output: 4.52 to 6.00

Task: Fill blank: measured pEC50 of the molecule O=C(CCCC1CCN(c2cc(N3CCC[C@H]3C(=O)NCCc3ccc(-c4ccncc4)cc3)nc(C(F)(F)F)n2)CC1)NCS(=O)(=O)O [Compound 353] is ____.
Output: > 7.00

Task: GET /values?readout=pEC50&item= O=C(O)CCCC1CCN(c2cc(N3CCC[C@@H](C(=O)NCCc4ccc(C(F)(F)F)cc4)C3)nc(C(F)(F)F)n2)CC1 [Compound 330]
Output: > 7.00

Task: Which value of pEC50 has been reported for N#Cc1ccc(CCNC(=O)[C@@H]2CCCN2c2cc(-c3ccc(CCC(=O)O)cc3)cc(C(F)(F)F)n2)cc1 [Compound 205] in the records?
Output: > 7.00

Values were extracted from patent US10654834B2.
